# target_desc: recombinant human BCAT2 enzyme (Homo sapiens)
# Construct: purchased ATGen (South Korea) ATGP1523
# Sequence (O15382 28-392): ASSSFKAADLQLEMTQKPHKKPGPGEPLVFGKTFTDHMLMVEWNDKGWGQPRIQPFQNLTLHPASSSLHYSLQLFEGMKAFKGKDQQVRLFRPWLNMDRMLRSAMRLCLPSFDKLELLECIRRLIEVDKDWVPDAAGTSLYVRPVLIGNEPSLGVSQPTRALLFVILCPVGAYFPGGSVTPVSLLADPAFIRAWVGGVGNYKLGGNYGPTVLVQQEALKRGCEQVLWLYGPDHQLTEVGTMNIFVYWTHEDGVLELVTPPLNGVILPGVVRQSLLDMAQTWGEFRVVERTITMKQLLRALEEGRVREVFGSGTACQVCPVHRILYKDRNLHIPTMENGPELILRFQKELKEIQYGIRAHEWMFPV
# method_notes: In vitro assay 1b: BCAT2 biochemical assay (coupled LeuDH/NADH fluorescence readout); also: recombinant human BCAT2 0.75 nM
# condition_details: recombinant human BCAT2 […], 32° C., 100 μM leucine, 50 μM α-ketoglutarate, NADH fluorescence over 90 min; read-out: BCAT2 IC50
# Method: In Vitro Assay 1a and 1b: BCAT1 and BCAT2 Biochemical Assay BOAT (Branched chain amino acid transferase) catalyzes transamination of the branched chain amino acid leucine to α-ketoisocaproate (KIC). The BOAT enzymatic reaction was measured in a coupled readout with leucine dehydrogenase (LeuDH) which catalyzes the Nicotinamide adenine dinucleotide (NADH) dependent reduction of KIC to leucine. NADH consumption is measured by fluorescent readout. […]
pIC50: −log10 of the molar value.
recorded_endpoint: pIC50

In [3]: df
Out[3]:
                                   compound                               target_desc  endpoint_value
0  COc1cc(C#N)c(Oc2ccccc2Cl)cc1-n1c(=O)cc(C(F)(F)F)[nH]c1=O (single isomer, unassigned) [Example 16]  recombinant human BCAT2 enzyme (Homo sapiens)            5.60
1  N#Cc1cc(F)c(-n2c(=O)cc(C(F)(F)F)[nH]c2=O)cc1Oc1c(N)cccc1F  recombinant human BCAT2 enzyme (Homo sapiens)            5.59
2  COc1cc(C#N)c(Oc2ccccc2C)cc1-n1c(=O)cc(C(F)(F)Cl)[nH]c1=O (racemic)  recombinant human BCAT2 enzyme (Homo sapiens)            5.89
3  Cc1ccccc1Oc1cc(-n2c(=O)cc(C(F)(F)F)[nH]c2=O)c(O)cc1C#N (racemic)  recombinant human BCAT2 enzyme (Homo sapiens)            4.81
4  Cc1cccc(C)c1Oc1cc(-n2c(=O)cc(C(F)(F)F)[nH]c2=O)c(Cl)cc1C#N (racemic)  recombinant human BCAT2 enzyme (Homo sapiens)            5.78
5  COc1cc(C#N)c(Oc2ccccc2C)cc1-n1c(=O)cc(Br)[nH]c1=O (racemic) [Example 19]  recombinant human BCAT2 enzyme (Homo sapiens)            5.46
6  Cc1ccccc1Oc1cc(-n2c(=O)cc(C(F)(F)c3ccccc3)[nH]c2=O)c(Cl)cc1C#N (racemic)  recombinant human BCAT2 enzyme (Homo sapiens)            5.80
7  COc1cc(C#N)c(Oc2ccccc2C)cc1-n1c(=O)cc(S(=O)(=O)c2ccccc2)[nH]c1=O (single isomer, unassigned) [Example 77]  recombinant human BCAT2 enzyme (Homo sapiens)            6.11

[P] COc1cc(C#N)c(Oc2ccccc2C)cc1-n1c(=O)cc(S(C)(=O)=O)[nH]c1=O (racemic) [Example 79]
[Q] COc1cc(C#N)c(Oc2ccccc2C)cc1-n1c(=O)cc(S(=O)(=O)c2ccccc2)[nH]c1=O (single isomer, unassigned) [Example 78]
Ask: Decide: P or Q , by lowest recorded pIC50. # reply format: chosen label
Result: P
(P: 5.40, Q: 6.85)

These data points were gathered from patent US20220411381A1.
